Origin of measurements: paper PMC10780244

# reported viability at 72 h, 50 µM; entries follow
- method: Drug tolerance in murine intestinal organoids (alamarBlue)
- Type: cell-based, mouse
- measurement_parameters: Balb/c, mouse, murine intestinal organoids, 50 µM, 72 h exposure
measurement_label: viability at 72 h, 50 µM (%)

[
  {
    "molecule": "Cc1ccc(S(=O)(=O)N2CC3C(Nc4ccc(Br)nc4[C@H]3c3ccccc3)c3ccccc32)cc1 (some centres unmarked) [Compound 8d]",
    "value_observed": 3
  },
  {
    "molecule": "O=c1oc2ccccc2c2nc3ncc(Br)cc3c(-c3ccccc3)c12 [Compound 13b]",
    "value_observed": 61
  },
  {
    "molecule": "Cc1ccc(S(=O)(=O)N2CC3C(Nc4cccnc4[C@H]3c3ccccc3)c3ccccc32)cc1 (some centres unmarked) [Compound 8a]",
    "value_observed": 89
  },
  {
    "molecule": "COc1ccc2nc3c(c(-c4ccccc4)c2n1)c(=O)oc1ccccc13 [Compound 7c]",
    "value_observed": 85
  },
  {
    "molecule": "Cc1ccc(S(=O)(=O)N2CC3C(Nc4ncccc4C3c3ccccc3)c3ccccc32)cc1 (centres unmarked) [Compound 14a]",
    "value_observed": 56
  },
  {
    "molecule": "COc1ccc2c(n1)[C@@H](c1ccccc1)C1CN(S(=O)(=O)c3ccc(C)cc3)c3ccccc3C1N2 (some centres unmarked) [Compound 8c]",
    "value_observed": 100
  },
  {
    "molecule": "O=c1oc2ccccc2c2nc3ncccc3c(-c3ccccc3)c12 [Compound 13a]",
    "value_observed": 53
  },
  {
    "molecule": "Cc1ccc(S(=O)(=O)N2Cc3c(nc4ncc(Br)cc4c3-c3ccccc3)-c3ccccc32)cc1 [Compound 15b]",
    "value_observed": 13
  },
  {
    "molecule": "Fc1ccc2c(c1)C1Nc3ncccc3[C@@H](c3ccccc3)C1CO2 (some centres unmarked) [Compound 10b]",
    "value_observed": 90
  },
  {
    "molecule": "c1ccc(-c2c3c(nc4ncccc24)-c2ccccc2OC3)cc1 [Compound 11a]",
    "value_observed": 96
  },
  {
    "molecule": "O=C1Oc2ccccc2C2Nc3ccc(Br)nc3[C@@H](c3ccccc3)C12 (some centres unmarked) [Compound 6b]",
    "value_observed": 60
  }
]
